# experimental_target: Long-chain-fatty-acid--AMP ligase FadD32 (Mycobacterium tuberculosis (strain ATCC 25618 / H37Rv))
# Sequence (whole entry): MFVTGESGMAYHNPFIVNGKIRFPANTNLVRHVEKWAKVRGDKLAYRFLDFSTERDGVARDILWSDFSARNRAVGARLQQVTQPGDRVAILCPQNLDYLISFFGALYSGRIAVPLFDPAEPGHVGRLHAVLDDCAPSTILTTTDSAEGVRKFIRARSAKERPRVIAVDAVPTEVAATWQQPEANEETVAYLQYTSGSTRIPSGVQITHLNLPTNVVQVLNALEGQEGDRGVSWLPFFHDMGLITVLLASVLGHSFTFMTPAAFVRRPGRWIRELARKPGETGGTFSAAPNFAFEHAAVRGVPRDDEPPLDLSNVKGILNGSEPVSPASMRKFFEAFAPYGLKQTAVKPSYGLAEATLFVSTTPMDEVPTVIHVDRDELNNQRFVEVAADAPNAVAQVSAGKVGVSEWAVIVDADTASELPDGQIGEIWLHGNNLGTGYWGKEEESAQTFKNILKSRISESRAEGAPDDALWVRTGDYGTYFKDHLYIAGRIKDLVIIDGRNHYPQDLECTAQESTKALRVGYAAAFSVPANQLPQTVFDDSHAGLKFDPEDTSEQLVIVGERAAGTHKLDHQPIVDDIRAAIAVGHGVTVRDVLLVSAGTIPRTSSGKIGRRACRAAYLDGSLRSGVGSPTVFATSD
# method_description: Inhibition of Mycobacterium tuberculosis H37Rv FadD32 assessed as reduction in bacterial viability after 6 days by resazurin dye based fluorescence assay
Below: a set of entries, each annotated with reported log10 MIC90.
Short version: log10 scale, MIC90, µM.

* Cc1cc2nccc(-c3ccnn3C)c2c(C)c1-c1ccc(CN2CCOCC2)cc1 | 0.40
* Cc1cc2nccc(-c3ccccc3Cl)c2c(C)c1-c1ccc(CN2CCOCC2)cc1 | -0.52
* COc1ccncc1-c1ccnc2cc(C)c(-c3ccc(CN4CCOCC4)cc3)c(C)c12 | 0.40
* Cc1cc2nc(C(=O)O)cc(-c3ccccc3Cl)c2c(C)c1-c1ccncc1 | 1.90
* CNC(=O)c1cc(-c2ccccc2Cl)c2c(C)c(-c3ccncc3)c(C)cc2n1 | -0.10
* Cc1cc2nc(C(=O)NCCN(C)C)cc(-c3ccccc3Cl)c2c(C)c1-c1ccncc1 | -0.52
* Cc1cc2nccc(-c3ccccc3)c2c(C)c1-c1ccc(CN2CCOCC2)cc1 | -0.35
* Cc1cc2nccc(-c3ccccc3Cl)c2c(C)c1-c1ccncc1 | 0.70

Moving on to another molecule below.
Req: Would you mind telling me what log10 MIC90 value was observed for `Cc1cc2nc(C(=O)NCCF)cc(-c3ccccc3Cl)c2c(C)c1-c1ccncc1` ?
Resp: 0.10
